Catalogue of molecules with associated IC50
Target: KRAS G12D (Homo sapiens, UniProt P01116+P62937, G12D)
Sequence (P01116 1-169 isoform P01116-2 G12D limits assumed): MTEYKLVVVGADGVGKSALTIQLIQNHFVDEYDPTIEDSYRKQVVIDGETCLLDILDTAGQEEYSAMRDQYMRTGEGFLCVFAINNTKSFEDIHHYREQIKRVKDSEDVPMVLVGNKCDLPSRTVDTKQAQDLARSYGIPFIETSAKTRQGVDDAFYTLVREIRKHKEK
Sequence (P62937 whole entry): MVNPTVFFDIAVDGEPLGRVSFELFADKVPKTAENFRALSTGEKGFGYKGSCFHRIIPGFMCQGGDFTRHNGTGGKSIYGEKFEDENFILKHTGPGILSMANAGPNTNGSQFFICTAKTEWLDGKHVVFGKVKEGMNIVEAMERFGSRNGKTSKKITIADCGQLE
Experiment: Disruption of BRAF RBD interaction with Ras (FRET / MOA assay, with Cyclophilin A)
Format: biochemical
Details: read-out: KRAS G12D FRET data, IC50

molecule=CCn1c(-c2cccnc2[C@H](C)OC)c2c3cc(ccc31)-c1csc(n1)C[C@H](NC(=O)[C@H](C(C)C)N(C)C(=O)N1C3CC1CN(C)C3)C(=O)N1CCC[C@H](N1)C(=O)OCC(C)(C)C2 system_under_test="KRAS G12D (Homo sapiens, UniProt P01116+P62937, G12D)" readout_label=IC50 measured="1000 to 10000 nM"

Prompt: Quick one: IC50 for C=CC(=O)N1CC[C@H](C(=O)N(C)[C@H](C(=O)N[C@H]2Cc3cc(O)cc(c3)-c3ccc4c(c3)c(c(-c3cccnc3CN(C)C)n4CC)CC(C)(C)COC(=O)[C@@H]3CCCN(N3)C2=O)C(C)C)C1 ?
Completion: > 10000 nM

Prompt: Quick one: IC50 for C=CC(=O)N1CC[C@H](C(=O)N(C)[C@H](C(=O)N[C@H]2Cc3cc(O)cc(c3)-c3ccc4c(c3)c(c(-c3ccccc3CCOC)n4C(C)(C)C#N)CC(C)(C)COC(=O)[C@@H]3CCCN(N3)C2=O)C(C)C)C1 ?
Completion: 1000 to 10000 nM

Prompt: Quick one: IC50 for CCn1c(-c2cccnc2COC)c2c3cc(ccc31)-c1cc(O)cc(c1)C[C@H](NC(=O)[C@H](C(C)C)N(C)C(=O)[C@H](N)CCCNC(=N)N)C(=O)N1CCC[C@H](N1)C(=O)OCC(C)(C)C2 ?
Completion: 100 to 1000 nM

The measurements presented in this section are drawn from patent US20230233569A1.
